Entries annotated with measured melting point

Consider the following illustrative entries.
{"COMPOUND": "COc1ccc(NC(=O)C(=Cc2ccco2)NC(=O)c2cc(OC)c(OC)c(OC)c2)cc1 [Compound 4c]", "ASSAY METRIC": "melting point", "REPORTED VALUE": "249 to 251 °C"}
{"COMPOUND": "COc1cc(C(=O)NC(=Cc2ccco2)C(=O)NC(C)C)cc(OC)c1OC [Compound 3]", "ASSAY METRIC": "melting point", "REPORTED VALUE": "168 to 170 °C"}
{"COMPOUND": "COc1cc(C(=O)NC(=Cc2ccco2)C(=O)Nc2ccccc2C)cc(OC)c1OC [Compound 4a]", "ASSAY METRIC": "melting point", "REPORTED VALUE": "222 to 224 °C"}
{"COMPOUND": "COc1cc(C(=O)NC(=Cc2ccco2)C(=O)NCc2cccc(C)c2)cc(OC)c1OC [Compound 5a]", "ASSAY METRIC": "melting point", "REPORTED VALUE": "175 to 177 °C"}
{"COMPOUND": "CCOC(=O)C(=Cc1ccco1)NC(=O)c1cc(OC)c(OC)c(OC)c1 [Compound 2]", "ASSAY METRIC": "melting point", "REPORTED VALUE": "126 to 128 °C"}

Looking for the measured melting point of COc1ccccc1CNC(=O)C(=Cc1ccco1)NC(=O)c1cc(OC)c(OC)c(OC)c1 [Compound 5b] , can you help?
166 to 168 °C

* * *

# Tested on: breast cancer MCF-7 cell line
# TEST DESCRIPTION: MTT cytotoxicity against breast cancer MCF-7 cell line
# Type: cell-based
# STATED CONDITIONS: Homo sapiens, MCF7, 24 h, MTT assay, 24 h drug treatment
ASSAY METRIC: IC50 (µM)
Please reply with the bare figure in µM and do not write the unit itself.

Consider the following illustrative entries.
{"SMILES STRING": "COc1ccccc1CNC(=O)C(=Cc1ccco1)NC(=O)c1cc(OC)c(OC)c(OC)c1", "IC50 / µM": 5.03}
{"SMILES STRING": "COc1cc(C(=O)NC(=Cc2ccco2)C(=O)NCc2cccc(C)c2)cc(OC)c1OC", "IC50 / µM": 3.92}
{"SMILES STRING": "COc1ccc(CNC(=O)C(=Cc2ccco2)NC(=O)c2cc(OC)c(OC)c(OC)c2)cc1OC", "IC50 / µM": 2.61}

Now let's try a different one.
Looking for the measured IC50 of "COc1cccc(CNC(=O)C(=Cc2ccco2)NC(=O)c2cc(OC)c(OC)c(OC)c2)c1" , can you help?
2.61

* * *

Entries annotated with measured melting point

{"SMILES STRING": "COc1cc(C(=O)NC(=Cc2ccco2)C(=O)Nc2ccc(O)cc2)cc(OC)c1OC", "REPORTED VALUE": "214 to 216 °C"}

Looking for the measured melting point of "COc1cc(C(=O)NC(=Cc2ccco2)C(=O)Nc2cccc(C)c2)cc(OC)c1OC" , can you help?
217 to 219 °C

Query "COc1cccc(CNC(=O)C(=Cc2ccco2)NC(=O)c2cc(OC)c(OC)c(OC)c2)c1" next
164 to 166 °C

Query "COc1ccc(CNC(=O)C(=Cc2ccco2)NC(=O)c2cc(OC)c(OC)c(OC)c2)cc1OC" next
124 to 126 °C

* * *

# System: breast cancer MCF-7 cell line
# TEST DESCRIPTION: MTT cytotoxicity against breast cancer MCF-7 cell line
# Assay type: cell-based
# STATED CONDITIONS: Homo sapiens, MCF7, 24 h, MTT assay, 24 h drug treatment
Entries annotated with measured IC50
Please reply with the bare figure in µM and do not write the unit itself.

Looking for the measured IC50 of "COc1ccc(NC(=O)C(=Cc2ccco2)NC(=O)c2cc(OC)c(OC)c(OC)c2)cc1" , can you help?
26.2

Query "COc1cc(C(=O)NC(=Cc2ccco2)C(=O)Nc2cccc(C)c2)cc(OC)c1OC" next
10.4

Query "COc1cc(C(=O)NC(=Cc2ccco2)C(=O)NC(C)C)cc(OC)c1OC" next
4.73
